# credit: patent US20250250357A1

biological target: T1, human MSLN-R2-his protein (human, UniProt Q13421 391-486); experiment: ELISA on coated MSLN-R2; antibody 0.0001 nM
T1 construct: Region 2 of human mesothelin, made in HEK293E cells, His-tagged; also called human MSLN-R2 protein; hMSLN-R2-his; not shown: His tag
T1 sequence (Q13421 other isoform, or with tags, fused parts or gaps): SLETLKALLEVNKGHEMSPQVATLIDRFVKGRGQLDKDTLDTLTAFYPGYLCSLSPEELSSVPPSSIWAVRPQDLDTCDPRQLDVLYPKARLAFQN
MEASURED_METRIC: OD450 (OD450)
Answer format: numeric, OD450 implied, no suffix.

- BINDER: "S009-F8-13.8 (antibody, human IgG1, kappa, V domains shown) VH: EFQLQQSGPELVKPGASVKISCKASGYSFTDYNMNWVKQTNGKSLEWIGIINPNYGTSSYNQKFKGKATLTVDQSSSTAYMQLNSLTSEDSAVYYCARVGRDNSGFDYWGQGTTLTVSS VL: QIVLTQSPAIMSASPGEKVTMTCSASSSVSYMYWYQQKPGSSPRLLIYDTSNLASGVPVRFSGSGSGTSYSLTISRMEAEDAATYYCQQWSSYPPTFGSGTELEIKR"
  OD450 / OD450: 0.05

Then this binder:
I have this binder here, S009-F8-33.12 (antibody, human IgG1, kappa, V domains shown) VH: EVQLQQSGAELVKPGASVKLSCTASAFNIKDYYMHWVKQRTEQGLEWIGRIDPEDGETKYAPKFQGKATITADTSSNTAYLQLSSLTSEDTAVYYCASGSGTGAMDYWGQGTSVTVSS VL: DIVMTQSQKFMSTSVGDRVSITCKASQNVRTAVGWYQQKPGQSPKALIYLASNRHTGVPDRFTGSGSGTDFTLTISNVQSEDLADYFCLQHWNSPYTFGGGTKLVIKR , and I need its recorded OD450.
0.04
